# Protocol Notes: in vivo
# Condition Label: APOE4-TR, mouse, po, 10 umol/kg
Quantity Kind: AUC(0-t)

Molecule Smiles	Test Value
C[C@@]1(c2nc(NC(=O)c3ncc(C(F)(F)F)cc3Cl)ccc2F)CO[C@@](C)(C(F)(F)F)C(N)=N1	4.86 µM·h

###

# Protocol Notes: Compound levels in blood, brain and skin of C57BL/6 mice (HPLC/MS/MS)
# Condition Label: C57BL/6, mouse, whole blood, po, 100 umol/kg, AUCblood (AUC0-24 h), C57BL/6, 100 μmol/kg q.d., day 56; from 4 and 24 h time points
Quantity Kind: AUC(0-t) (µM·h)

Molecule	Quantity Kind	Test Value
Cc1cc(C#N)cnc1C(=O)Nc1ccc(F)c([C@]2(C)CO[C@@](C)(C(F)(F)F)C(N)=N2)c1 [NB-360]	AUC(0-t)	25.3

###

# Protocol Notes: Compound levels in blood, brain and skin of C57BL/6 mice (HPLC/MS/MS)
# Condition Label: C57BL/6, mouse, whole blood, po, 20 umol/kg, AUCblood (AUC0-24 h), C57BL/6, 20 μmol/kg q.d., day 56; from 4 and 24 h time points

Molecule Smiles	AUC(0-t) (µM·h)
Cc1cc(C#N)cnc1C(=O)Nc1ccc(F)c([C@]2(C)CO[C@@](C)(C(F)(F)F)C(N)=N2)c1	5.6

###

# Protocol Notes: Compound levels in blood, brain and skin of C57BL/6 mice (HPLC/MS/MS)
# Condition Label: C57BL/6, mouse, whole blood, po, 20 umol/kg, AUCblood (AUC0-24 h), C57BL/6, 20 μmol/kg q.d., day 56; from 1, 4, 7, 24 h time points
Quantity Kind: AUC(0-t) (µM·h)

Compound	Quantity Kind	Test Value
Cc1cc(C#N)cnc1C(=O)Nc1ccc(F)c([C@]2(C)CO[C@@](C)(C(F)(F)F)C(N)=N2)c1 [NB-360]	AUC(0-t)	6.93

###

# Protocol Notes: Compound levels in blood, brain and skin of C57BL/6 mice (HPLC/MS/MS)
# Condition Label: C57BL/6, mouse, brain / whole blood, oral
Quantity Kind: Kp

Molecule Smiles	Quantity Kind	Test Value
Cc1cc(C#N)cnc1C(=O)Nc1ccc(F)c([C@]2(C)CO[C@@](C)(C(F)(F)F)C(N)=N2)c1	Kp	2.8

###

# Protocol Notes: Compound levels in blood, brain and skin of C57BL/6 mice (HPLC/MS/MS)
# Condition Label: C57BL/6, mouse, whole blood, po, 100 umol/kg, AUCblood (AUC0-24 h), C57BL/6, 100 μmol/kg q.d., day 56; from 1, 4, 7, 24 h time points
Quantity Kind: AUC(0-t) (µM·h)

Compound	Quantity Kind	Test Value
Cc1cc(C#N)cnc1C(=O)Nc1ccc(F)c([C@]2(C)CO[C@@](C)(C(F)(F)F)C(N)=N2)c1 [NB-360]	AUC(0-t)	35.9

###

# Protocol Notes: in vivo
# Condition Label: APOE4-TR, mouse, po, 30 umol/kg

Molecule Smiles	AUC(0-t)
C[C@@]1(c2nc(NC(=O)c3ncc(C(F)(F)F)cc3Cl)ccc2F)CO[C@@](C)(C(F)(F)F)C(N)=N1	14.9 µM·h

###

# Protocol Notes: in vivo
# Condition Label: C57BL/6, mouse
Quantity Kind: Kp

Molecule Smiles	Quantity Kind	Test Value
C[C@@]1(c2nc(NC(=O)c3ncc(C(F)(F)F)cc3Cl)ccc2F)CO[C@@](C)(C(F)(F)F)C(N)=N1	Kp	3.2

###

# Protocol Notes: in vivo
# Condition Label: APOE4-TR, mouse, po, 3 umol/kg
Quantity Kind: AUC(0-t) (µM·h)

Molecule Smiles	Quantity Kind	Unit Text	Test Value
C[C@@]1(c2nc(NC(=O)c3ncc(C(F)(F)F)cc3Cl)ccc2F)CO[C@@](C)(C(F)(F)F)C(N)=N1	AUC(0-t)	µM·h	1.56

###

# Protocol Notes: in vivo
# Condition Label: C57BL/6, mouse, po, 50 umol/kg, AUCblood (AUC0-24 h)
Quantity Kind: AUC(0-t) (µM·h)

Molecule Smiles	Test Value
C[C@@]1(c2nc(NC(=O)c3ncc(C(F)(F)F)cc3Cl)ccc2F)CO[C@@](C)(C(F)(F)F)C(N)=N1	28.9

The measured values listed here are drawn from patent US20200345746A1.
